- target_desc: RARb:RXRa (Homo sapiens, UniProt P10826;P19793 full;full)
- Sequence (P10826 whole entry, chain 1 of 2): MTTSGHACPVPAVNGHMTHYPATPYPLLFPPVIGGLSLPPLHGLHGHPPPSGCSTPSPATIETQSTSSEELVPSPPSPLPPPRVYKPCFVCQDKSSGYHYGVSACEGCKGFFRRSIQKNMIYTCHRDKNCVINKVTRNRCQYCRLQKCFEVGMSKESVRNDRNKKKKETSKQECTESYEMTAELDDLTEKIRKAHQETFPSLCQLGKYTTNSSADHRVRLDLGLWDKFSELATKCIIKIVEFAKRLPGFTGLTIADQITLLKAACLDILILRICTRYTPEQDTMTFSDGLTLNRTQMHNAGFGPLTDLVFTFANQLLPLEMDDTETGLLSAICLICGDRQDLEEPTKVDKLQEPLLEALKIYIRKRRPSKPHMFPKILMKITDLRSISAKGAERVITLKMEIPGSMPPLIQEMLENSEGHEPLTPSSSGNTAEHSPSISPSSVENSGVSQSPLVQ
- Sequence (P19793 whole entry, chain 2 of 2): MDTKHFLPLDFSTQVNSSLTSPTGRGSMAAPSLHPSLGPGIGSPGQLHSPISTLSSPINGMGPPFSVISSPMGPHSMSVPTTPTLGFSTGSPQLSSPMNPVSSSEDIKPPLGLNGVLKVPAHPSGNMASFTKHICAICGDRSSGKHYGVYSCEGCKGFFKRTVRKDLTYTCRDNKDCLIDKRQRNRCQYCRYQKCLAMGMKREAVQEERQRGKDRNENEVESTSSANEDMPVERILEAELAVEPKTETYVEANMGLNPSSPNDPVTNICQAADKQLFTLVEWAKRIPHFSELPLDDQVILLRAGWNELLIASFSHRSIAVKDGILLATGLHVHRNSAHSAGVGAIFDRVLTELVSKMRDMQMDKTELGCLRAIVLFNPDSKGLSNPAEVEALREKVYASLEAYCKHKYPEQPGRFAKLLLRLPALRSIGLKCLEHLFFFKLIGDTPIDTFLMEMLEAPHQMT
- assay: no ligand; PBM; 270 nM : 90 nM RXRa; PBS pH 7.4, 2% milk, 0.02% Triton X-100, 1 mM DTT, BSA, 0.4 mg/ml salmon testes DNA
- experimental_conditions: tags: His kept;His cleaved; copies: 1;1; label: surface-attached array probe
quantity: binding signal

Give recorded binding signal. NRC3_wobSeed10_DR0_A7G_o1 (dsDNA) DNA 1: GCATCGGAAGGTCGAGGTGAGTATAGAGAAAGGGAAGCGATTGACAGCGTAGAATGAAGG DNA 2: CCTTCATTCTACGCTGTCAATCGCTTCCCTTTCTCTATACTCACCTCGACCTTCCGATGC 3 PBM z-score against 500 random probes
